# System: 596521-263-R-J1-PDC complex spheroid growth;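 further: spheroids exposed to compounds for 7 days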
# protocol: Anticancer human tumor 596521-263-R-J1-PDC patient-derived soft tissue sarcoma cell line growth inhibition [Asc]
# condition-set: curve of first compound; second compound 1 µM
pIC50: −log10 of the molar value.
Would you please tag the item yes (1) when its pIC50 is 6 or above, and no (0) when it is below?

Would you please look over these solved cases?
# compound, tested-system, category
data = [
    ("C#Cc1c(F)ccc2cc(O)cc(-c3ncc4c(N5CC6CCC(C5)N6)nc(OCC56CCCN5CC(F)C6)nc4c3F)c12 (configuration not stated) + Cc1c(S(C)(=O)=O)c(-c2cc(F)cc(N3CCN(c4ccc(NS(=O)(=O)c5ccc(NC(CCN6CCC(C(=O)OCCCP(=O)(O)O)CC6)CSc6ccccc6)c(S(=O)(=O)C(F)(F)F)c5)cc4)CC3)c2)c(-c2ccc(Cl)cc2)n1C(C)C", "596521-263-R-J1-PDC complex spheroid growth", "no (0)"),
    ("O=C(c1ccc(F)c(F)c1Nc1ccc(I)cc1F)N1CC(O)([C@@H]2CCCCN2)C1 + CNC(C)C(=O)NC1CN(S(=O)(=O)c2cccc(S(=O)(=O)N3CCC4CCC(C(=O)NC(c5ccccc5)c5ccccc5)N4C(=O)C(NC(=O)C(C)NC)C3)c2)CCC2CCC(C(=O)NC(c3ccccc3)c3ccccc3)N2C1=O", "596521-263-R-J1-PDC complex spheroid growth", "yes (1)"),
]

Prompt: # bool: pIC50 of C=CC(=O)N1CCN(c2nc(=O)n(-c3c(C)ccnc3C(C)C)c3nc(-c4c(O)cccc4F)c(F)cc23)C(C)C1 (configuration not stated) + Cc1c(S(C)(=O)=O)c(-c2cc(F)cc(N3CCN(c4ccc(NS(=O)(=O)c5ccc(NC(CCN6CCC(C(=O)OCCCP(=O)(O)O)CC6)CSc6ccccc6)c(S(=O)(=O)C(F)(F)F)c5)cc4)CC3)c2)c(-c2ccc(Cl)cc2)n1C(C)C >= 6
Completion: no (0)

Prompt: API: above_or_equal(metric=pIC50, cutoff=6) for item O=C(c1ccc(F)c(F)c1Nc1ccc(I)cc1F)N1CC(O)([C@@H]2CCCCN2)C1 + Cc1c(S(C)(=O)=O)c(-c2cc(F)cc(N3CCN(c4ccc(NS(=O)(=O)c5ccc(NC(CCN6CCC(C(=O)OCCCP(=O)(O)O)CC6)CSc6ccccc6)c(S(=O)(=O)C(F)(F)F)c5)cc4)CC3)c2)c(-c2ccc(Cl)cc2)n1C(C)C
Completion: yes (1)

Prompt: Determine whether this compound has pIC50 no lower than 6: Cc1nc(N2CCC3(CC2)COC(C)C3N)c(CO)nc1Sc1ccnc(N)c1Cl (configuration not stated) + Cc1c(S(C)(=O)=O)c(-c2cc(F)cc(N3CCN(c4ccc(NS(=O)(=O)c5ccc(NC(CCN6CCC(C(=O)OCCCP(=O)(O)O)CC6)CSc6ccccc6)c(S(=O)(=O)C(F)(F)F)c5)cc4)CC3)c2)c(-c2ccc(Cl)cc2)n1C(C)C
Completion: no (0)

Prompt: Exam item: decide whether the reported pIC50 for NC(=O)C(=Cn1cnc(-c2cc(C(F)(F)F)cc(C(F)(F)F)c2)n1)c1cncnc1 + CNC(C)C(=O)NC1CN(S(=O)(=O)c2cccc(S(=O)(=O)N3CCC4CCC(C(=O)NC(c5ccccc5)c5ccccc5)N4C(=O)C(NC(=O)C(C)NC)C3)c2)CCC2CCC(C(=O)NC(c3ccccc3)c3ccccc3)N2C1=O is at least 6.
Completion: yes (1)
